SUBJECT OF TEST: Apoptosis regulator Bcl-2, Homo sapiens (UniProt P10415)
Sequence (P10415 whole entry): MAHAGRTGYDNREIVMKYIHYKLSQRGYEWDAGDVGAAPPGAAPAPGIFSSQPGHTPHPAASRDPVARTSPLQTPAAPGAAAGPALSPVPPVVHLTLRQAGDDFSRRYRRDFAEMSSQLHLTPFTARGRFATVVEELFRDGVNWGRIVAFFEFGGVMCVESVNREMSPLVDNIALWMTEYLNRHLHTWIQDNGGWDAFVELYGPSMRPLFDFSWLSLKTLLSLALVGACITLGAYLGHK
MEASUREMENT NOTES: Bim-Bcl-2 binding modulators, biochemical, multiplexed, high-throughput, human Bcl-2 (AID 1328)
In all, about 830 compounds went through this assay and fewer than 10 were called active. A selection follows.
EXPERIMENTAL ENDPOINT: outcome

Use these answered entries as a reference point.
O=C(COc1ccccc1Br)NCc1ccccn1 : inactive
Cn1c(=O)c2c(nc(NCCO)n2CCc2ccccc2)n(C)c1=O : inactive
CCNC(=O)N1c2ccc(OCC)cc2C(C)=CC1(C)C : inactive
O=C(NC1=NCCS1)NC12CC3CC(CC(C3)C1)C2 : inactive
Cc1occc1C(=O)NNC(=S)NCc1ccccc1 : inactive

Q. What value of outcome has been reported for the following compound? `Cc1ccc(C(=O)NNC(=O)c2ccc3ncccc3c2)cc1`
A. inactive
